# testName: Cmax in C57BL/6 mouse at 50 mg/kg, po measured after 144 hrs by LC-MS/MS analysis
# Assay type: ADME, organism-based
# condition: in vivo
readout: Cmax (µM)
Quick reminder: number only, in µM, skip the unit.

// fetch Cmax given entry Cc1ccc(-c2nc3ccccc3s2)cc1NC(=O)c1cc([N+](=O)[O-])c(N2CCN(C)CC2)cc1Cl 6.5

====

# testName: AUC in C57BL/6 mouse at 50 mg/kg, po measured after 144 hrs by LC-MS/MS analysis
# Assay type: ADME, organism-based
# condition: in vivo
readout: AUC at 144 h
Lab note: write values as number then unit, every time.

// fetch AUC at 144 h given entry Cc1ccc(-c2nc3ccccc3s2)cc1NC(=O)c1cc([N+](=O)[O-])c(N2CCN(C)CC2)cc1Cl 83 µM·h
